Target: acyl-CoA:cholesterol acyltransferase (ACAT) (Oryctolagus cuniculus, UniProt G1SFD9)
Sequence (G1SFD9 1-524): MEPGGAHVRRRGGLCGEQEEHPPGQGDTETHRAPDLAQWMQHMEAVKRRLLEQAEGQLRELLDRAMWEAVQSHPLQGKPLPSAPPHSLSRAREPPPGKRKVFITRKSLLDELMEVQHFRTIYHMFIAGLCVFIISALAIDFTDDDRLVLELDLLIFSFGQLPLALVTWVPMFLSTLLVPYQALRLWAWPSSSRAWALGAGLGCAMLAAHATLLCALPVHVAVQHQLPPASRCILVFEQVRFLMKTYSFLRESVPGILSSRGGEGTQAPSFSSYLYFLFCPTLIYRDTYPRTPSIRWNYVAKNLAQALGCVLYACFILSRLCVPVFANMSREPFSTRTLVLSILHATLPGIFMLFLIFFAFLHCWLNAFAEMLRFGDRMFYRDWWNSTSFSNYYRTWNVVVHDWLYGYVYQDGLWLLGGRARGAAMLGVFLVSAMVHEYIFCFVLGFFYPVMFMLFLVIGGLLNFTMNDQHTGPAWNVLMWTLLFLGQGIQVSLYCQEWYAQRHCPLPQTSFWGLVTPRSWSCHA
endpoint: IC50 (nM)

• CC(C)c1cccc(C(C)C)c1NC(=O)NOC(c1ccccc1)c1ccccc1 [Example 1] = 30
